tested on: 2nd order mesenteric resistance arteries of SHR; test: Reactivity of isolated arteries: dilator effect during contraction induced by 40 mmol/L K+; parameters: species or system Spontaneously Hypertensive Rats (SHR); conditions: Rattus norvegicus; isolated mesenteric resistance arteries of SHR, pre-contracted with 40 mmol/L K+; deduced by comparing mixtures (Plackett-Burman design), corrected for solvent; read-out: EC50 of dilation of the arteries
Experimental Readout: pEC50
# pEC50: negative log10 of molar concentration; output just the value

Asked: // Input: "O=c1c(O)c(-c2ccc(O)cc2)oc2cc(O)cc(O)c12" . Output its pEC50 only.
Given back: 5.52
